Target: KRAS G12D (Homo sapiens (Human), UniProt P01116+P62937, G12D)
Sequence (P01116-2 other isoform, or with tags, fused parts or gaps G12D): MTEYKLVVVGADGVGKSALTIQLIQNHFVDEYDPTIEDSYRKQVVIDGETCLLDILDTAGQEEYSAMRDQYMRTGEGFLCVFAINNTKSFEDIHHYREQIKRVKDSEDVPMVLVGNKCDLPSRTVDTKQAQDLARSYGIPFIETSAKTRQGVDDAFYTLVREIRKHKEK
Sequence (P62937 whole entry): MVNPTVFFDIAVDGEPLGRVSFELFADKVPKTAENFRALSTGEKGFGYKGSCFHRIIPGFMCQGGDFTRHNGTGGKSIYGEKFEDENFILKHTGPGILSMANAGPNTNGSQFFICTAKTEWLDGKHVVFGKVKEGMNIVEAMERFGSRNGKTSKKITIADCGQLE
Assay: Ras-Raf (BRAF RBD) disruption / FRET / MOA assay, KRAS G12D
Format: biochemical
Settings: Ras-Raf disruption/FRET/MOA assay; class symbols; read-out: KRAS G12D FRET data IC50
Procedure: The purpose of this biochemical assay is to measure the ability of test compounds to facilitate ternary complex formation between a nucleotide-loaded Ras isoform and cyclophilin A; the resulting ternary complex disrupts binding to a BRAF^RBD construct, inhibiting Ras signaling through a RAF effector. Compound is present in plate wells as a 10-point 3-fold dilution series starting at a final concentration of 30 μM. […]
pIC50: −log10 of the molar value.
measured attribute: pIC50

[ask] Using the record for C=CC(=O)N1CCO[C@@H]2CN(C(=O)N(C)[C@H](C(=O)N[C@H]3Cc4nc(cs4)-c4ccc5c(c4)c(c(-c4cccnc4[C@H](C)OC)n5CC)CC(C)(C)COC(=O)[C@@H]4CCCN(N4)C3=O)C(C)C)C[C@H]21 (atropisomer, axis not shown) , report its pIC50.
[reply] 5.00 to 6.00

[ask] Item C=CC(=O)N1CCC2(CC1)CN(C(=O)N(C)[C@H](C(=O)N[C@H]1Cc3nc(cs3)-c3ccc4c(c3)c(c(-c3cccnc3[C@H](C)OC)n4CC)CC(C)(C)COC(=O)[C@@H]3CCCN(N3)C1=O)C(C)C)C2 (atropisomer, axis not shown) has what recorded pIC50?
[reply] 5.00 to 6.00

[ask] I'd like to know its pIC50. The molecule in question is `C=CC(=O)N1CC[C@H](C(=O)N(C)[C@H](C(=O)N[C@H]2Cc3cc(O)cc(c3)-c3ccc4c(c3)c(c(-c3ccccc3COC)n4CC)CC(C)(C)COC(=O)[C@@H]3CCCN(N3)C2=O)C2CCCC2)C1`
[reply] < 5.00

[ask] Any idea what its pIC50 is? The molecule is `CCn1c(-c2ccccc2CN(C)C)c2c3cc(ccc31)-c1cc(O)cc(c1)C[C@H](NC(=O)[C@H](C(C)C)N(C)C(=O)c1ccc(NC(=O)/C=C/CN(C)C)cn1)C(=O)N1CCC[C@H](N1)C(=O)OCC(C)(C)C2`
[reply] 5.00 to 6.00

---

target: K-Ras G13C (Homo sapiens (Human), UniProt P01116+P62937, G13C); test: Ras-Raf (BRAF RBD) disruption / FRET / MOA assay, KRAS G13C; type: biochemical; conditions: KRAS G13C; Ras-Raf disruption/FRET/MOA assay; read-out: IC50* KRAS G13C FRET data
Sequence (P01116-2 other isoform, or with tags, fused parts or gaps G13C): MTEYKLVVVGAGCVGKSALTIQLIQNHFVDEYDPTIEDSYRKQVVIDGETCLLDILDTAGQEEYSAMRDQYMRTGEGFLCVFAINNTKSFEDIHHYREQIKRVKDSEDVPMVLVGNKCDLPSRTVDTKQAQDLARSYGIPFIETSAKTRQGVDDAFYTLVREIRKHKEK
Sequence (P62937 whole entry): as the sequence (P62937 whole entry) above
measured attribute: IC50

[ask] API: value(readout= IC50, system= K-Ras G13C (Homo sapiens (Human), UniProt P01116+P62937, G13C), query= C=CC(=O)N(C)[C@H]1C[C@@H](N(C)C(=O)N(C)[C@H](C(=O)N[C@H]2Cc3nc(cs3)-c3ccc4c(c3)c(c(-c3cccnc3[C@H](C)OC)n4CC)CC(C)(C)COC(=O)[C@@H]3CCCN(N3)C2=O)C(C)C)C1 (atropisomer, axis not shown) )
[reply] 100 to 1000 nM

[ask] Enter reported IC50 observed with K-Ras G13C (Homo sapiens (Human), UniProt P01116+P62937, G13C) for CCn1c(-c2cccnc2[C@H](C)OC)c2c3cc(ccc31)-c1cccc(c1)C[C@H](NC(=O)CCOC1CN(C(=O)C#CC(C)(C)N(C)C)C1)C(=O)N1CCC[C@H](N1)C(=O)OCC(C)(C)C2 (atropisomer, axis not shown)
[reply] > 10000 nM

[ask] Request body: readout IC50, system K-Ras G13C (Homo sapiens (Human), UniProt P01116+P62937, G13C), query `CO[C@@H](C)c1ncccc1-c1c2c3cc(ccc3n1CC(F)(F)F)-c1nnc(o1)C[C@H](NC(=O)[C@H](C(C)C)N(C)C(=O)[C@H]1CCN(C(=O)C#CC(C)(C)N3CCC3)C1)C(=O)N1CCC[C@H](N1)C(=O)OCC(C)(C)C2` . Return the value.
[reply] 100 to 1000 nM

[ask] Tell me reported IC50 for CO[C@@H](C)c1ncccc1-c1c2c3cc(ccc3n1CC(F)(F)F)-c1csc(n1)C[C@H](NC(=O)[C@H](C(C)C)N(C)C(=O)N1C[C@@H]3OCCN(C(=O)/C=C/C(F)F)[C@@H]3C1)C(=O)N1CCC[C@H](N1)C(=O)OCC(C)(C)C2 (atropisomer, axis not shown) , tested with K-Ras G13C (Homo sapiens (Human), UniProt P01116+P62937, G13C).
[reply] 10 to 100 nM

[ask] Tell me reported IC50 for C=CC(=O)N(C)CCC1CCN(C(=O)N(C)[C@H](C(=O)N[C@H]2Cc3nc(cs3)-c3ccc4c(c3)c(c(-c3cccnc3[C@H](C)OC)n4CC)CC(C)(C)COC(=O)[C@@H]3CCCN(N3)C2=O)C(C)C)CC1 (atropisomer, axis not shown) , tested with K-Ras G13C (Homo sapiens (Human), UniProt P01116+P62937, G13C).
[reply] 10 to 100 nM

[ask] # value lookup — system K-Ras G13C (Homo sapiens (Human), UniProt P01116+P62937, G13C), readout IC50, item C=CC(=O)Nc1csc(C(=O)N(C)[C@H](C(=O)N[C@H]2Cc3cc(O)cc(c3)-c3ccc4c(c3)c(c(-c3cccnc3[C@H](C)OC)n4CC)CC(C)(C)COC(=O)[C@@H]3CCCN(N3)C2=O)C(C)C)n1 (atropisomer, axis not shown)
[reply] 10 to 100 nM

[ask] Item C=CC(=O)N1CCOC2(CCN(C(=O)N(C)[C@H](C(=O)N[C@H]3Cc4nc(n(C)n4)-c4ccc5c(c4)c(c(-c4cccnc4[C@H](C)OC)n5CC(F)(F)F)CC(C)(C)COC(=O)[C@@H]4CCCN(N4)C3=O)C(C)C)CC2)C1 (atropisomer, axis not shown) with K-Ras G13C (Homo sapiens (Human), UniProt P01116+P62937, G13C) - IC50?
[reply] 10 to 100 nM

[ask] Give recorded IC50 with K-Ras G13C (Homo sapiens (Human), UniProt P01116+P62937, G13C) for the following compound: C=CC(=O)NC1CN(C(=O)N(C)[C@H](C(=O)N[C@H]2Cc3nc(cs3)-c3ccc4c(c3)c(c(-c3cccnc3[C@H](C)OC)n4CC)CC(C)(C)COC(=O)[C@@H]3CCCN(N3)C2=O)C(C)C)C1 (atropisomer, axis not shown)
[reply] 100 to 1000 nM
